# Test system: CCRIS mutagenicity, Ames/micronucleus/aberration tests
# protocol_text: CCRIS mutagenicity studies
# condition_description: Test System: AMES SALMONELLA TYPHIMURIUM; Strain/Indicator: TA1535; Metabolic Activation: HAMSTER, LIVER, S-9, AROCLOR 1254; Method: STANDARD PLATE
The source made the active and inactive calls. No rule for the calls is given here.
Respond with a class label; see 1 (active), -1 (inactive)

Study these solved cases before continuing.
compound | category
Nc1nc2cc(Cl)c(Cl)cc2s1 | -1
CCCCCCCCCCCC(=O)OCCS(=O)(=O)O | -1
O=Cc1ccccc1[N+](=O)[O-] | -1
C1O[C@@H]1[C@@H]1CO1 | 1
Cl/C=C/CCl | 1

Challenge: So what was the verdict on `O=C(O)/C=C/c1ccc(O)c(O)c1` in this test?
Response given: -1

Challenge: Would you kindly repeat that for `Nc1nc2ccc([N+](=O)[O-])cc2s1` ?
Response given: 1

Challenge: Would you kindly repeat that for CC1=CCC(C(C)(C)O)CC1 (configuration not stated) ?
Response given: -1

---

# Tested on: CCRIS mutagenicity, Ames/micronucleus/aberration tests
# protocol_text: CCRIS mutagenicity studies
# condition_description: Test System: AMES SALMONELLA TYPHIMURIUM; Strain/Indicator: TA1535; Metabolic Activation: NONE; Method: STANDARD PLATE
# From the text: The CCRIS database contains chemical records with carcinogenicity, mutagenicity, tumor promotion, and tumor inhibition test results. It was developed by the National Cancer Institute (NCI). Data are derived from studies cited in primary journals, current awareness tools, NCI reports, and other sources. Test results have been reviewed by experts in carcinogenesis and mutagenesis. CCRIS provides historical information from the years 1985 - 2011. It is no longer updated. […]
Active and inactive are the calls of the source. How the calls were made is not given here.
Respond with a class label; see y for active, n for inactive

Challenge: So what was the verdict on `O=S(=O)(NO)c1cccc2cccnc12` in this test?
Response given: n

Challenge: Would you kindly repeat that for `ClNc1nc(NCl)nc(NCl)n1` ?
Response given: n

Challenge: Would you kindly repeat that for `O=S(=O)(Oc1ccc(Cl)cc1Cl)c1cccc2cccnc12` ?
Response given: n

Challenge: Would you kindly repeat that for `CC(C)OC(=O)C(C)(C)Oc1ccc(C(=O)c2ccc(Cl)cc2)cc1` ?
Response given: n

Challenge: Would you kindly repeat that for `CCNc1nc(Cl)nc(NC(C)C)n1` ?
Response given: n

Challenge: Would you kindly repeat that for CC1CCC(C(C)C)C(OC(=O)c2ccccc2N)C1 (configuration not stated) ?
Response given: n

Challenge: Would you kindly repeat that for `O=NO` ?
Response given: y

---

# System: CCRIS mutagenicity, Ames/micronucleus/aberration tests
# protocol_text: CCRIS mutagenicity studies
# condition_description: Test System: AMES SALMONELLA TYPHIMURIUM; Strain/Indicator: TA98; Metabolic Activation: RAT LIVER S-9, PHENOBARBITAL AND BETA-NAPHTHOFLAVONE; Method: PREINCUBATION
Activity calls are given as the source filed them. No rule for the calls is given here.
Respond with a class label; see active, inactive

Study these solved cases before continuing.
compound | assayed_target | category
CCCCCCCCCCCCCO | CCRIS mutagenicity, Ames/micronucleus/aberration tests | inactive
Nc1ccc(N)cc1 | CCRIS mutagenicity, Ames/micronucleus/aberration tests | active
C1CCC(NC2CCCCC2)CC1 | CCRIS mutagenicity, Ames/micronucleus/aberration tests | inactive
c1ccc(-c2ccccc2)cc1 | CCRIS mutagenicity, Ames/micronucleus/aberration tests | inactive

Challenge: So what was the verdict on `CC(C)(C)N` in this test?
Response given: inactive

Challenge: Would you kindly repeat that for `NN=C(N)N` ?
Response given: inactive
